Molecular target: PI3K alpha (Homo sapiens, UniProt P42336)
Construct: p85(iSH2) fusion partner (see partner chain) (N); His tag (C); Tn5 (Trichoplusia ni) or TiniPro insect cells
Sequence (P42336 with tags, fused parts or gaps limits assumed): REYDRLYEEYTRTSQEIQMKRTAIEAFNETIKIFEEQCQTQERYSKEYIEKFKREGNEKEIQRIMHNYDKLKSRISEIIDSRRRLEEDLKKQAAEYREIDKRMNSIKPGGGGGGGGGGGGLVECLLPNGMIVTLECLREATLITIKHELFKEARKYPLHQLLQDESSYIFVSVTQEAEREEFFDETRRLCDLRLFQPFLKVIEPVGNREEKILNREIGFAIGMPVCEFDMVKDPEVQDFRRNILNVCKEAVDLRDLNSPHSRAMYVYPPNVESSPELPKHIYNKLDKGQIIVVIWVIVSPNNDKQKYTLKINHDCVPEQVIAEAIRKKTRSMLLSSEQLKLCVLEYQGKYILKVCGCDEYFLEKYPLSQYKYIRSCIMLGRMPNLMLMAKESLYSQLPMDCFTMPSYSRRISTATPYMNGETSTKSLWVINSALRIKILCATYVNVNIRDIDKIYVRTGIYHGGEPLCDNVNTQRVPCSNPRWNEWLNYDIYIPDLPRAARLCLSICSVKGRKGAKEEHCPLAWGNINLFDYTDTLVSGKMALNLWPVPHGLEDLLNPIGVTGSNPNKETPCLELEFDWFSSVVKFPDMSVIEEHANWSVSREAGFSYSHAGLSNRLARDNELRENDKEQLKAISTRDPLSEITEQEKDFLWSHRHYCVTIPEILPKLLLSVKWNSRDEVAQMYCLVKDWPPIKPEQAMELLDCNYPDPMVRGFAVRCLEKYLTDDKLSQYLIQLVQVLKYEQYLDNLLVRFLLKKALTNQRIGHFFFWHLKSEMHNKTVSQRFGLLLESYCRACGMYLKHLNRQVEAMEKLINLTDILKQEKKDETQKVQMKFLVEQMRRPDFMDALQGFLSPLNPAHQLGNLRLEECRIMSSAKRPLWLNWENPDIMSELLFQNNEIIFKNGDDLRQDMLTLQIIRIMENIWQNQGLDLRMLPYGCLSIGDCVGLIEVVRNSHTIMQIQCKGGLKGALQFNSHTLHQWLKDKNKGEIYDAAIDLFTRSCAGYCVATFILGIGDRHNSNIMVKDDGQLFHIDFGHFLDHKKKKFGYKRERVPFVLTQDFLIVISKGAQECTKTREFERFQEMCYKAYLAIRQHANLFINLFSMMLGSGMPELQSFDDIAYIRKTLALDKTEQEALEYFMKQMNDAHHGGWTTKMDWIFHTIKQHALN
Assay: PI3K alpha kinase assay (Kinase-Glo luminescence)
Assign IC50 to each entry below.

Below: 4 compounds and their reported IC50.
                                smiles_repr  property  result
0  Cc1cncc(-c2ccc3ncc4c(c3c2)n(-c2cn(C)nc2C)c(=O)n4C)c1      IC50   10 nM
1  CCOc1ccc(-c2ccc3ncc4c(c3c2)n(-c2cn(CCOC)nc2C)c(=O)n4C)cn1      IC50  161 nM
2  Cc1nn(C(C)C)cc1-n1c(=O)n(C)c2cnc3ccc(-c4cncc(N)c4)cc3c21      IC50   76 nM
3  Cc1nn(C(C)C)cc1-n1c(=O)n(C)c2cnc3ccc(-c4ccc(C(N)=O)nc4)cc3c21      IC50   79 nM

Value sought for every listed compound: IC50.
1. Cc1nn(C)cc1-n1c(=O)n(C)c2cnc3ccc(-c4cncc(NS(C)(=O)=O)c4)cc3c21
2. CCN(C)c1cncc(-c2ccc3ncc4c(c3c2)n(-c2cn(C)nc2C)c(=O)n4C)c1

result:
11 nM
17 nM
